Reference source for all entries: PubChem BioAssay (NCI)

- Test system: HCT-15 colon
- Measurement notes: NCI tumour cell line growth inhibition, 48 h
Where a SMILES comes first, the peptide text is derived from it. The star is where a group is joined. Boc = CC(C)(C)OC(=O)*

- Molecule: "O=C(c1ccco1)N(C(=S)N1CCN(c2ccccc2)CC1)c1ccccc1"
  Measurement target: "HCT-15 colon"
  TGI: "> 100 µM"
- Molecule: "N#CC(c1ccccc1)c1cccc2ccccc12 (centres undefined)"
  Measurement target: "HCT-15 colon"
  TGI: "> 100 µM"
- Molecule: "CC(NCCS(=O)(=O)O)C(=O)O (centres undefined)"
  Measurement target: "HCT-15 colon"
  TGI: "> 100 µM"
- Molecule: "O=C1/C(=C/c2cccs2)N=C(c2ccccc2)N1C1Nc2cc3c(cc2S1)NC(N1C(=O)/C(=C/c2cccs2)N=C1c1ccccc1)S3 (centres undefined)"
  Measurement target: "HCT-15 colon"
  TGI: "34.7 µM"
- Molecule: "c1c[nH]c(Cc2ncc(Cc3cnc[nH]3)[nH]2)n1"
  Measurement target: "HCT-15 colon"
  TGI: "> 100 µM"
- Molecule: "O=C1NC(=O)C(c2ccccc2Cl)=C1Nc1cccc(O)c1"
  Measurement target: "HCT-15 colon"
  TGI: "> 25 µM"
- Molecule: "O=C1C=C(c2cc(Br)c(O)c(Br)c2)/C(=C/c2cc(Br)c(O)c(Br)c2)O1"
  Measurement target: "HCT-15 colon"
  TGI: "> 75 µM"
- Molecule: "O=S(=O)(O)c1ccc2cc(N=Nc3cc(S(=O)(=O)O)c4cccnc4c3O)ccc2c1"
  Measurement target: "HCT-15 colon"
  TGI: "> 100 µM"
- Molecule: "OC1CCC(Oc2cccc3cnc(Nc4ccc5nc[nH]c5c4)nc23)CC1 (centres undefined)"
  Measurement target: "HCT-15 colon"
  TGI: "16.7 µM"
- Molecule: "COc1cc2[nH]c(-c3ccccc3)cc(=O)c2cc1OC"
  Measurement target: "HCT-15 colon"
  TGI: "97.9 µM"
- Molecule: "COc1ccc2c(c1)CC[C@@H]1[C@@H]2CC[C@]2(C)/C(=N/OCCN3CCCCC3)CC[C@@H]12"
  Measurement target: "HCT-15 colon"
  TGI: "6.23 µM"
- Molecule: "NC1CCC(c2cc3ccccc3s2)(N2CCCCC2)CC1 (centres undefined)"
  Measurement target: "HCT-15 colon"
  TGI: "3.76 µM"
- Molecule: "O=C1c2cccc3cc([N+](=O)[O-])cc(c23)C(=O)N1CCCN1CCN(CCCN2C(=O)c3cccc4cc([N+](=O)[O-])cc(c34)C2=O)CC1"
  Measurement target: "HCT-15 colon"
  TGI: "> 100 µM"
- Molecule: "C=C1C(=O)O[C@H]2[C@H]1CC/C(COC(=O)c1ccc(C(=O)O)s1)=C\\CC[C@@]1(C)O[C@@H]21"
  Measurement target: "HCT-15 colon"
  TGI: "4.72 µM"
- Molecule: "Cn1cc(NC(=O)c2cc(NC(=O)CCCCCC(=O)Nc3cc(C(=O)Nc4cc(C(=O)NCCC(=N)N)n(C)c4)n(C)c3)cn2C)cc1C(=O)NCCC(=N)N"
  Measurement target: "HCT-15 colon"
  TGI: "> 100 µM"
- Molecule: "O=C1CC(O)c2c(Cl)sc(Cl)c21 (centres undefined)"
  Measurement target: "HCT-15 colon"
  TGI: "11.3 µM"
- Molecule: "CCOC(=O)/C=C(/CN1C(=O)c2ccccc2C1=O)c1ccccc1"
  Measurement target: "HCT-15 colon"
  TGI: "> 100 µM"
- Molecule: "COc1cccc(C2c3cc4c(cc3OC(N3CCOCC3)C2C)OCO4)c1O (centres undefined)"
  Measurement target: "HCT-15 colon"
  TGI: "27.9 µM"
- Molecule: "CC(NC(=O)C(NC(=O)OC(C)(C)C)C(C)C)C(=O)NCC(=O)O (stereo not drawn) (Boc-Val-Ala-Gly-OH; configuration not given here)"
  Measurement target: "HCT-15 colon"
  TGI: "> 100 µM"
- Molecule: "c1cc(-c2sc(-c3ccncc3)c(-c3ccncc3)c2-c2ccncc2)ccn1"
  Measurement target: "HCT-15 colon"
  TGI: "56.7 µM"
- Molecule: "CCCN(CCCCC(NC(C)=O)C(=O)NCc1ccccc1)C(=O)NC (centres undefined)"
  Measurement target: "HCT-15 colon"
  TGI: "> 100 µM"
- Molecule: "c1cncc(C2c3[nH]c4ccccc4c3CCN2CCN2CCCCC2)c1 (centres undefined)"
  Measurement target: "HCT-15 colon"
  TGI: "> 100 µM"
- Molecule: "Cc1nn(-c2ccccc2)c(C)c1/C=N/NC(=O)c1sc(=S)n(-c2ccccc2)c1N"
  Measurement target: "HCT-15 colon"
  TGI: "> 100 µM"
- Molecule: "COC1CCC(OC2CC(C3(C)CCC4(CC(O)C(C)C(C(C)/C=C(\\C)C(=O)C(C)CC(C)C(=O)O)O4)O3)OC3(OC(C4OC(O)(CO)C(C)CC4C)CC3C)C2C)OC1C (centres undefined)"
  Measurement target: "HCT-15 colon"
  TGI: "1.95 µM"
- Molecule: "CC(Nc1cc(Cl)cc(Cl)c1)c1ccncc1 (centres undefined)"
  Measurement target: "HCT-15 colon"
  TGI: "> 100 µM"
- Molecule: "O=C(CSC1=NCCN1)c1ccccc1"
  Measurement target: "HCT-15 colon"
  TGI: "> 100 µM"
- Molecule: "COc1ccc(-c2cc(-c3ccc(Nc4ccnc5cc(Cl)ccc45)cc3)nc(N)c2C#N)c2ccccc12"
  Measurement target: "HCT-15 colon"
  TGI: "> 100 µM"
- Molecule: "CCOC(=O)c1c2ccc(/C=C/C(=O)OC)ccc-2c(C(=O)OCC)c1N"
  Measurement target: "HCT-15 colon"
  TGI: "> 100 µM"
- Molecule: "CCN(CC)CCNc1ccc(N=Nc2ccc(S(N)(=O)=O)cc2)c2ccccc12"
  Measurement target: "HCT-15 colon"
  TGI: "> 100 µM"
- Molecule: "CCCc1ccc(N=Cc2cc(OC)c(OC)c(OC)c2)cc1"
  Measurement target: "HCT-15 colon"
  TGI: "> 54.6 µM"
- Molecule: "Cc1ccc(S(=O)(=O)ON/N=C2/C3OC3[C@@H]3CCCC[C@H]23)cc1 (some centres undefined)"
  Measurement target: "HCT-15 colon"
  TGI: "> 100 µM"
- Molecule: "Cc1cc2occ(C)c(=O)c2c2c1OC(C)(C)S2"
  Measurement target: "HCT-15 colon"
  TGI: "> 100 µM"
- Molecule: "O=S1(=O)c2ccccc2N2CCCc3cc(Cl)cc1c32"
  Measurement target: "HCT-15 colon"
  TGI: "> 100 µM"
- Molecule: "CC[C@@]1(OC(=O)CCC(=O)O)C(=O)OCc2c1cc1n(c2=O)Cc2cc3ccccc3nc2-1"
  Measurement target: "HCT-15 colon"
  TGI: "11.7 µM"
- Molecule: "CCCCCCCCCCCCC(SCCNC(=O)CCNC(=O)C(O)C(C)(C)COP(=O)(O)OP(=O)(O)OCC1OC(n2cnc3c(N)ncnc32)C(O)C1OP(=O)(O)O)C(=O)NCC(N)=O (centres undefined)"
  Measurement target: "HCT-15 colon"
  TGI: "> 100 µM"
- Molecule: "C=CCN(N=O)C(=O)N(CCC)CCCC(NC(C)=O)C(=O)NCc1ccccc1 (centres undefined)"
  Measurement target: "HCT-15 colon"
  TGI: "> 100 µM"
- Molecule: "CN(C)CCNc1cccc2sc3ccc(O)cc3c(=O)c12"
  Measurement target: "HCT-15 colon"
  TGI: "5.09 µM"
- Molecule: "Nc1ncnc2c1ncn2C1OC(C(=O)O)C(O)C1O (centres undefined)"
  Measurement target: "HCT-15 colon"
  TGI: "> 100 µM"
- Molecule: "COc1ccc(CNc2nc3ccccc3nc2-c2cccs2)cc1"
  Measurement target: "HCT-15 colon"
  TGI: "> 100 µM"
